# system.under.test: human Peroxisome Proliferator-activated Receptor delta (PPARd), PPARD (gene 5467) (UniProt Q03181)
# Sequence (Q03181 whole entry, looked up): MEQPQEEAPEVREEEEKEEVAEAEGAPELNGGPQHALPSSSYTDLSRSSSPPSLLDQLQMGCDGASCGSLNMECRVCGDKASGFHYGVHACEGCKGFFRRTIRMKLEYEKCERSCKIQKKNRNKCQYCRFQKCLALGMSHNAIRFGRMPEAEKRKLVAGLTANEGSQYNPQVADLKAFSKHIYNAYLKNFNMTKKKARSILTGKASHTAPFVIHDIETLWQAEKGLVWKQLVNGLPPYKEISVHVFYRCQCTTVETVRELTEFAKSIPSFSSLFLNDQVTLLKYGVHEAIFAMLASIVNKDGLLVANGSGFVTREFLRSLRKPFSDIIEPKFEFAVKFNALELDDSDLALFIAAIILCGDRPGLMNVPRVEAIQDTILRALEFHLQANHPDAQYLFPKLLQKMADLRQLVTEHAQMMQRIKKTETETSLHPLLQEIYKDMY
# assay.summary: ATG_PPARd_TRANS: Attagene TRANS-FACTORIAL HepG2 Assay for human Peroxisome Proliferator-activated Receptor delta (PPARd) (AID 2283002)
Results filed as inconclusive are left out. Calls of active or inactive are those of the source. Rule for the calls: active = hit-call score of the fitted dose curve at least 0.9, where 1 is the maximum; inconclusive = response in the unintended direction; inactive = score below 0.9.
Answer with one of the outcomes given here: active, inactive

O=C(c1ccccc1)c1ccccc1
inactive
Cc1cncc(C)c1
inactive

Please share the test call associated with `C[C@]12CC[C@@H]3c4ccc(O)cc4CC[C@H]3[C@@H]1C[C@@H](O)[C@@H]2O` . inactive

Please share the test call associated with `OCC(F)(F)C(F)(F)C(F)(F)C(F)(F)C(F)(F)C(F)(F)C(F)(F)C(F)(F)C(F)(F)C(F)(F)C(F)(F)F` . inactive

Please share the test call associated with `C=C(c1ccc(C(=O)O)cc1)c1cc2c(cc1C)C(C)(C)CCC2(C)C` . inactive

Please share the test call associated with Nc1ccn([C@@H]2O[C@H](CO)[C@@H](O)C2O)c(=O)n1 (some centres not stated) . active

Please share the test call associated with `Oc1ccc(Cc2ccccc2O)cc1` . inactive

Please share the test call associated with `C=CCOCC(CO)(CO)CO` . inactive

Please share the test call associated with `Oc1cc2ccccc2cc1O` . inactive

Please share the test call associated with `CCCCCCOC(=O)c1ccc(O)cc1` . inactive

Please share the test call associated with `O=CC(F)(F)C(F)(F)C(F)(F)C(F)F` . inactive

Please share the test call associated with `Cc1cc(C(C)(C)C)c(O)c(C(C)(C)C)c1` . inactive
